biological target: Voltage-gated inwardly rectifying potassium channel KCNH2 (Homo sapiens); assay: Displacement of [35S]-MK499 from hERG by […]; format: toxicity
Sequence (Q12809 whole entry): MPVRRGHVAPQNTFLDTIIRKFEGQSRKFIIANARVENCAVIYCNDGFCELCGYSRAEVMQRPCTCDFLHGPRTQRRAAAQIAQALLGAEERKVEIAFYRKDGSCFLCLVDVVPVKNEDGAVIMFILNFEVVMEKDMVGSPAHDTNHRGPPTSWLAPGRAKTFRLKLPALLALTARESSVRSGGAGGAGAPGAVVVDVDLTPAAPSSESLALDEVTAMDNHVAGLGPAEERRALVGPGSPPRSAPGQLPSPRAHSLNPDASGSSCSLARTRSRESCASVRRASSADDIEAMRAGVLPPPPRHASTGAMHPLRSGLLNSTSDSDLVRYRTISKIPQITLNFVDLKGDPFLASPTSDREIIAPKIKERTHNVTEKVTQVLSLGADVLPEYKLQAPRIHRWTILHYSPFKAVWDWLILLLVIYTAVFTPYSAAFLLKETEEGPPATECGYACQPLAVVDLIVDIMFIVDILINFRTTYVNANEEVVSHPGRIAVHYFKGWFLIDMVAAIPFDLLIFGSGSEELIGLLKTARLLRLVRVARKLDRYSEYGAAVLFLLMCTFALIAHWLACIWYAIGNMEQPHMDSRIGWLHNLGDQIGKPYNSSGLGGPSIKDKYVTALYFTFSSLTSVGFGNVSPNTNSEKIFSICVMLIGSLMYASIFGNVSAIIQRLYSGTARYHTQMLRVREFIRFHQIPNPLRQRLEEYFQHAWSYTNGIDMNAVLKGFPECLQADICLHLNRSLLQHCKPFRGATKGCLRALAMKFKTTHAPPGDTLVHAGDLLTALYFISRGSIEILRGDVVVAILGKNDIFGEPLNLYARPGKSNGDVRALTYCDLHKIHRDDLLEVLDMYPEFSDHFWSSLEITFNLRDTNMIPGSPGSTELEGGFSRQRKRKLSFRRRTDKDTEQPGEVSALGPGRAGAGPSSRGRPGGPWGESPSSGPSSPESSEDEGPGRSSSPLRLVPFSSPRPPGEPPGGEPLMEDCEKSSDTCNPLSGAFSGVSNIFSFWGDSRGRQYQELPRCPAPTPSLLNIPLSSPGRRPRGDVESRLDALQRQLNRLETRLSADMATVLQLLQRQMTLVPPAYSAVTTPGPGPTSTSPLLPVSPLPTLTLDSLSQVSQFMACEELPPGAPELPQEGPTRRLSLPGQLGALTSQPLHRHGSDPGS
pIC50: −log10 of the molar value.
endpointLabel: pIC50

**Query** Entry `Cc1cnc2c(NC(=O)c3cn4cc(C56COC(C)(C5)C6)nc4c(F)c3OC(C)C)cnn2c1` has what pIC50?
**Result** < 4.22

====

assay: Half life in dog at 1 mg/kg, iv by LC-MS/MS analysis; type: ADME, organism-based, Canis lupus familiaris; details: in vivo
endpointLabel: half-life
The answer should read as a number with its unit following.

**Query** Entry `Cc1cnc2c(NC(=O)c3cn4cc(C56COC(C)(C5)C6)nc4nc3OC(C)C)cnn2c1` has what half-life?
**Result** 10 h

====

assay: Unbound brain-to-plasma concentration ratio in iv dosed rat measured at 4 to 24 hrs by LC-MS/MS analysis; assay type: ADME, organism-based; settings: brain and plasma, time 4-24 hrs, read-out: K(p,uu,brain)
endpointLabel: Kp uu
Answer with a number only.

Answered examples (3):
| recordSmiles | Kp uu |
| --- | --- |
| COc1cc(NC(=O)c2cccc(C(F)(F)F)n2)cn2cc(C3CCOCC3)nc12 | 0.2 |
| Cc1cnc2c(NC(=O)c3cn4cc(C56COC(C)(C5)C6)nc4c(F)c3OC(C)C)cnn2c1 | 0.7 |
| Cc1cc(NC(=O)c2cccc(C(F)F)n2)cn2cc(C3CCOCC3)nc12 | 0.7 |

**Query** Entry `CC(C)Oc1cc2nc(C34COC(C)(C3)C4)cn2cc1C(=O)Nc1cnn2cccnc12` has what Kp uu?
**Result** 0.1

**Query** Item: `CCOc1cc2nc(C3CCOCC3)cn2cc1NC(=O)c1cccc(C(F)F)n1`
**Result** 0.3

**Query** Item: `CCOc1cc2nc(C[C@@H]3CCOC3)cn2cc1NC(=O)c1cccc(C(F)F)n1`
**Result** 0.9

**Query** Item: `CCOc1cc2nc(C34COC(C)(C3)C4)cn2cc1NC(=O)c1cccc(C(F)F)n1`
**Result** 0.4

**Query** Item: `CC(C)Oc1cc2nc(C3CCOCC3)cn2cc1NC(=O)c1cccc(C(F)F)n1`
**Result** 0.4

**Query** Item: `CC(C)Oc1cc2nc(C34COC(C)(C3)C4)cn2cc1C(=O)Nc1cccc(C(F)F)n1`
**Result** 0.4

**Query** Item: `CC(C)Oc1nc2nc(C34COC(C)(C3)C4)cn2cc1C(=O)Nc1cnn2cccnc12`
**Result** 0.2

**Query** Item: `CC(C)Oc1nc2nc(C34COC(C)(C3)C4)cn2cc1C(=O)Nc1cnn2cc(F)cnc12`
**Result** 0.2

**Query** Item: `Cc1cc2nc(C3CCOCC3)cn2cc1NC(=O)c1cccc(C(F)F)n1`
**Result** 1

====

assay: AUCinfinity in rat at 1 mg/kg, iv by LC-MS/MS analysis; format: ADME, organism-based; settings: in vivo
endpointLabel: AUC(0-inf)
The answer should read as a number with its unit following.

**Query** Entry `Cc1cnc2c(NC(=O)c3cn4cc(C56COC(C)(C5)C6)nc4nc3OC(C)C)cnn2c1` has what AUC(0-inf)?
**Result** 6530 ng·h/mL

Every entry's value here was drawn from ChEMBL document CHEMBL5518220.
